Tested on: Botrytis cinerea
assay.details: Fungicidal activity (under greenhouse conditions against Cucumber botrytis (Botrytis cinerea) at 200 ppm
Format: functional
# Disease control per entry
Numeric only. Scale: %

Use the examples below as a reference point.
Ask: Please tell me the measured Disease control for "CCCCCc1ccnc(-c2cc(CCCCC)ccn2)c1" ; system: Botrytis cinerea.
Result: 0

Ask: State the measured Disease control (Botrytis cinerea) of "Cc1ccc(-c2ccc(-c3ccccn3)nc2)cc1"
Result: 59

Ask: Tell me its Disease control on Botrytis cinerea: "COc1ccccc1-c1ccnc(-c2cc(C)ccn2)c1"
Result: 0

Ask: # return Disease control of "c1ccc(-c2ccnc(-c3ccccn3)c2)cc1" (system: Botrytis cinerea)
Result: 0

Others:
Ask: Fill in: Disease control on Botrytis cinerea, entry "c1ccc(OCc2ccc(-c3ccccn3)nc2)cc1"
Result: 0

Ask: Send back Botrytis cinerea Disease control of "Clc1ccc(-c2ccc(-c3ccccn3)nc2)cc1" only.
Result: 0

Ask: State measured Disease control of the molecule "O=[N+]([O-])c1ccc(-c2ccc(-c3ccccn3)nc2)cc1" with Botrytis cinerea.
Result: 0

Ask: Find Disease control for "CC(C)c1ccnc(-c2cc(C(C)C)ccn2)c1" on Botrytis cinerea and write it down.
Result: 0

Ask: Recall the reported Disease control of "Brc1ccc(-c2ccc(-c3ccccn3)nc2)cc1" on Botrytis cinerea and write it down.
Result: 0

Ask: Provide Disease control, tested on Botrytis cinerea, for "Fc1ccc(-c2ccc(-c3ccccn3)nc2)cc1" .
Result: 0

Ask: Report Disease control under test system Botrytis cinerea for "COc1ccc(-c2ccc(-c3ccccn3)nc2)cc1" .
Result: 0

Ask: For Botrytis cinerea, give the measured Disease control of the entry "Cc1ccnc(-c2cc(-c3ccccc3)ccn2)c1"
Result: 30

Ask: Give Botrytis cinerea Disease control for the following molecule: "CCCCc1ccnc(-c2cc(CCCC)ccn2)c1"
Result: 0

---

Let's look at some molecules and their measured Disease control.
Test system: Botrytis cinerea
assay.details: Fungicidal activity (under greenhouse conditions against Cucumber botrytis (Botrytis cinerea) at 200 ppm
Assay type: functional
Return type: number; implicit unit %.

Examples with answers:
Ask: Please give the documented Disease control of "c1ccc(-c2ccc(-c3ccccn3)nc2)cc1"
Result: 45

Ask: Could you please provide reported Disease control for "O=[N+]([O-])c1ccccc1-c1ccnc(-c2ccccn2)c1" ? Thanks!
Result: 41

More entries:
Ask: Tell me measured Disease control for "COc1ccccc1-c1ccnc(-c2ccccn2)c1" please.
Result: 0

Ask: Look up Disease control of "Cc1ccc(-c2ccccn2)nc1" and report it.
Result: 0

Ask: Please report the measured Disease control for "CCCCCCCCCCCCc1ccnc(-c2cc(CCCCCCCCCCCC)ccn2)c1"
Result: 0

---

Reported Disease control by item:
Tested on: Blumeria graminis
assay.details: The fungicidal activity (percent disease control) under greenhouse conditions against Wheat powdery mildew (Erisyphe graminis) at 200 ppm at 200 ppm; shows curative effect
Type: functional
# output: bare number, implied unit %

Solved entries (count: 4):
Ask: Would you please give the reported Disease control of "c1ccc(-c2ccc(-c3ccccn3)nc2)cc1" with Blumeria graminis?
Result: 100

Ask: Find the measured Disease control of "Brc1ccc(-c2ccc(-c3ccccn3)nc2)cc1" with Blumeria graminis as test system.
Result: 19

Ask: Find Disease control for "Clc1ccc(-c2ccc(-c3ccccn3)nc2)cc1" on Blumeria graminis and write it down.
Result: 99

Ask: Fill: Disease control (Blumeria graminis) for this molecule "c1ccc(-c2ccnc(-c3ccccn3)c2)cc1"
Result: 95

---
Ask: Provide measured Disease control on Blumeria graminis for "COc1ccccc1-c1ccnc(-c2ccccn2)c1" please.
Result: 93

Ask: Lab note: Blumeria graminis assay, enter Disease control for "Fc1ccc(-c2ccc(-c3ccccn3)nc2)cc1" here
Result: 55

Ask: GET Disease control | system: Blumeria graminis | item: "Cc1ccc(-c2ccc(-c3ccccn3)nc2)cc1"
Result: 99

---

Test system: Puccinia recondita
assay.details: Fungicidal activity under greenhouse conditions against Wheat leaf rust (Puccinia recondita) at 200 ppm
Format: functional
We begin with a simple list: items and their reported Disease control.
Express it in %; write the number only.

Worked examples follow.
Ask: Determine from records and report Disease control for "Clc1ccc(-c2ccc(-c3ccccn3)nc2)cc1"
Result: 65

Ask: Give Disease control for "Fc1ccc(-c2ccc(-c3ccccn3)nc2)cc1"
Result: 64

Ask: Please report Disease control for the following molecule: "COc1ccc(-c2ccc(-c3ccccn3)nc2)cc1"
Result: 93

Ask: Determine from records and report Disease control for "O=[N+]([O-])c1ccc(-c2ccc(-c3ccccn3)nc2)cc1"
Result: 0

Next:
Ask: Dear colleague, please send me the reported Disease control for "COc1ccccc1-c1ccnc(-c2ccccn2)c1" when you can.
Result: 85

Ask: Specify measured Disease control for "CCCCCc1ccnc(-c2cc(CCCCC)ccn2)c1" .
Result: 90

Ask: Recall and state the measured Disease control for "O=[N+]([O-])c1ccccc1-c1ccnc(-c2ccccn2)c1" .
Result: 67

Ask: Fill in reported Disease control for this entry: "c1ccc(OCc2ccc(-c3ccccn3)nc2)cc1"
Result: 0

Ask: State, in one line, measured Disease control of "Cc1ccnc(-c2cc(-c3ccccc3)ccn2)c1"
Result: 99

Ask: Supply reported Disease control belonging to this molecule: "Brc1ccc(-c2ccc(-c3ccccn3)nc2)cc1"
Result: 20

Ask: Quote Disease control reported for "Cc1ccc(-c2ccccn2)nc1" please.
Result: 0

Ask: Identify Disease control associated with the molecule "CCCCc1ccnc(-c2cc(CCCC)ccn2)c1"
Result: 33

Ask: Output Disease control of "Cc1ccnc(-c2ccc(-c3ccccc3)cn2)c1"
Result: 93

---

The following compounds are shown together with reported Disease control values.
System: Plasmopara viticola
assay.details: The fungicidal activity (percent disease control) under greenhouse conditions against Grape downy mildew (Plasmopara viticola) at 200 ppm
Type: functional
Give just the numeric value; % need not be written.

Ask: Return reported Disease control for target or system Plasmopara viticola, item "c1ccc(-c2ccc(-c3ccccn3)nc2)cc1" .
Result: 96

Ask: Report value: Disease control, system: Plasmopara viticola, compound: "c1ccc(-c2ccnc(-c3ccccn3)c2)cc1"
Result: 96

Ask: Quote Disease control with test system Plasmopara viticola for "O=[N+]([O-])c1ccc(-c2ccc(-c3ccccn3)nc2)cc1"
Result: 60

Ask: State measured Disease control of the compound "Cc1ccc(-c2ccccn2)nc1" with Plasmopara viticola.
Result: 0

---

System: Pyricularia grisea
assay.details: Fungicidal activity under greenhouse conditions against Rice blast (Pyricularia oryzae) at 200 ppm
Type: functional
measurement.name: Disease control (%)
Entry rule: numbers only, all in %.

Use these answered entries as a reference point.
Ask: Please report the measured Disease control for "c1ccc(OCc2ccc(-c3ccccn3)nc2)cc1" tested on Pyricularia grisea.
Result: 0

Ask: State recorded Disease control with Pyricularia grisea, entry "Clc1ccc(-c2ccc(-c3ccccn3)nc2)cc1" , no comment.
Result: 97

Next:
Ask: Name the value of Disease control reported for "COc1ccccc1-c1ccnc(-c2cc(C)ccn2)c1" when tested on Pyricularia grisea.
Result: 53

Ask: State, for Pyricularia grisea, measured Disease control of the compound listed here: "O=[N+]([O-])c1ccc(-c2ccc(-c3ccccn3)nc2)cc1"
Result: 0

Ask: Fetch value of Disease control on Pyricularia grisea for "Brc1ccc(-c2ccc(-c3ccccn3)nc2)cc1" .
Result: 0

Ask: Report the value of Disease control obtained on Pyricularia grisea for "c1ccc(-c2ccnc(-c3ccccn3)c2)cc1" .
Result: 74

Ask: Fill in Disease control for "Cc1ccc(-c2ccc(-c3ccccn3)nc2)cc1" tested with Pyricularia grisea.
Result: 32

Ask: State the measured Disease control (Pyricularia grisea) of "CCCCc1ccnc(-c2cc(CCCC)ccn2)c1"
Result: 85

Ask: Would you please give the reported Disease control of "CCCCCCCCCCCCc1ccnc(-c2cc(CCCCCCCCCCCC)ccn2)c1" with Pyricularia grisea?
Result: 0

Ask: Consider the compound "O=[N+]([O-])c1ccccc1-c1ccnc(-c2ccccn2)c1" tested on Pyricularia grisea; state its Disease control.
Result: 32

Ask: Specify the recorded Disease control for "CC(C)c1ccnc(-c2cc(C(C)C)ccn2)c1" , system: Pyricularia grisea.
Result: 67

Ask: Param request: Disease control | system Pyricularia grisea | item "COc1ccccc1-c1ccnc(-c2ccccn2)c1"
Result: 32

Ask: Under Pyricularia grisea: report Disease control of "CCCCCc1ccnc(-c2cc(CCCCC)ccn2)c1" .
Result: 27

Ask: Enter measured Disease control, system Pyricularia grisea, for the compound shown: "COc1ccc(-c2ccc(-c3ccccn3)nc2)cc1"
Result: 97

Ask: Provide Pyricularia grisea Disease control reading for "Cc1ccnc(-c2cc(-c3ccccc3)ccn2)c1" .
Result: 53

Ask: State Disease control (Pyricularia grisea) of "Cc1ccnc(-c2ccc(-c3ccccc3)cn2)c1" .
Result: 32

Ask: Param request: Disease control | system Pyricularia grisea | item "Fc1ccc(-c2ccc(-c3ccccn3)nc2)cc1"
Result: 32

Ask: Print Pyricularia grisea Disease control for "Cc1ccc(-c2ccccn2)nc1" .
Result: 0
